These measurements were taken from ChEMBL document CHEMBL4689842.

test system: Fibroblast; test: Multiplex assay against human fibroblast; format: toxicity, cell-based; conditions: 48 h, 1 µM, compound concentration 1 uM, replicate 1
Listed compounds paired with reported Population Healthy Nuclei (%)
API: value field is a number in %; no unit string.

Use the examples below as a reference point.
{"Compound": "CC(C)N1CCC(C)(C)c2cc(C#Cc3ccc(C(=O)O)cc3)ccc21", "U": "%", "Population Healthy Nuclei (%)": 45}
{"Compound": "Cc1nc(Cc2cccc(C(F)(F)F)c2)sc1-c1ccc(C(N)=O)nc1 [TP-024n]", "U": "%", "Population Healthy Nuclei (%)": 58}
{"Compound": "CNc1oc(-c2cccc3ccccc23)nc1C#N", "U": "%", "Population Healthy Nuclei (%)": 23}
{"Compound": "Nc1nc2c(c(N3CCNCC3)n1)CCC1=C2[C@@H]2CCCC[C@@H]2O1", "U": "%", "Population Healthy Nuclei (%)": 45}
{"Compound": "CCn1c(-c2nonc2N)nc2cnc(Oc3cccc(NC(=O)c4ccc(OCCN5CCOCC5)cc4)c3)cc21 [GSK-269962A]", "U": "%", "Population Healthy Nuclei (%)": 58}
{"Compound": "O=C(O)c1ccc2cc(-c3ccc(O)c(C45CC6CC(CC(C6)C4)C5)c3)ccc2c1", "U": "%", "Population Healthy Nuclei (%)": 26}
{"Compound": "Nc1ccc(C(=O)Nc2cccc(-c3nc(N4CCOCC4)c4oc5ncccc5c4n3)c2)cn1", "U": "%", "Population Healthy Nuclei (%)": 45}
{"Compound": "CC(=O)c1cc(-c2cc(C(=O)NC3CC3)ccc2C)c2ncccn12", "U": "%", "Population Healthy Nuclei (%)": 46}
{"Compound": "CCC(=O)O[C@]1(C(=O)SCF)[C@H](C)C[C@H]2[C@@H]3C[C@H](F)C4=CC(=O)C=C[C@]4(C)[C@@]3(F)[C@@H](O)C[C@@]21C [FLUTICASONE PROPIONATE]", "U": "%", "Population Healthy Nuclei (%)": 43}
{"Compound": "Cl.Cl.Nc1ncnc2c1c(-c1cccc(OCc3ccccc3)c1)cn2[C@H]1C[C@@H](CN2CCC2)C1", "U": "%", "Population Healthy Nuclei (%)": 56}

API: the following record is the query input.
Give Fibroblast Population Healthy Nuclei (%) for COc1ccc(NS(=O)(=O)c2sc3ccc(Cl)cc3c2C)cc1N1CCNCC1.Cl
47

----------
tested on: U2OS; assay: Incucyte cell viability with U2OS; type: toxicity, cell-based; settings: human, 0 h, 10 µM, compound concentration 10 uM, replicate number 1, timepoint 0 hours; note: filed as whole numbers so only -1 and 0 and 1 occur
Listed compounds paired with reported Growth Rate
Respond using a number only.

Use the examples below as a reference point.
{"Compound": "COc1ccc(COc2ccc(Cc3cnc(N)nc3N)cc2OC)cc1 [GW632580X]", "Measured number": 0}
{"Compound": "CN(C)C(=O)Cn1cc(-c2nc(C3(c4ccc(-c5cnc(N)nc5)cc4)CC3)no2)cn1", "Measured number": 0}
{"Compound": "O=C(Nc1cccc2c(=O)cc(-c3nnn[nH]3)oc12)c1ccc(OCCCCc2ccccc2)cc1", "Measured number": 1}
{"Compound": "CO[C@@H]1COCC[C@@H]1N[C@@H]1CC[C@@](C(=O)N2CCc3ncc(C(F)(F)F)cc3C2)(C(C)C)C1", "Measured number": 0}
{"Compound": "Cl.Cl.NC1(c2ccc(-c3nc4ccn5c(=O)[nH]nc5c4cc3-c3ccccc3)cc2)CCC1", "Measured number": 0}
{"Compound": "CS(=O)(=O)N1CCN(Cc2cc3nc(-c4cccc5[nH]ncc45)nc(N4CCOCC4)c3s2)CC1", "Measured number": 0}

API: the following record is the query input.
Give U2OS Growth Rate for N#Cc1ccc(Nc2ccc3[nH]c(=O)[nH]c3c2)c(Cl)c1 [TP-021n]
1

----------
tested on: Fibroblast; assay: Multiplex assay against human fibroblast; type: toxicity, cell-based; conditions: 24 h, 1 µM, compound concentration 1 uM, replicate 1
Metric: Population Hoechst High Intensity Objects (%)
API: value field is a number in %; no unit string.

Use the examples below as a reference point.
{"Molecule": "CC(C)(C)c1cnc(CSc2cnc(NC(=O)C3CCNCC3)s2)o1", "Measured number": 12}
{"Molecule": "CC(C)N1CCC(C)(C)c2cc(C#Cc3ccc(C(=O)O)cc3)ccc21", "Measured number": 41}

Given O=C(O)c1ccc2cc(-c3ccc(O)c(C45CC6CC(CC(C6)C4)C5)c3)ccc2c1 , state its recorded Population Hoechst High Intensity Objects (%).
23

Consider next the molecule Cl.Cl.NC1(c2ccc(-c3nc4ccn5c(=O)[nH]nc5c4cc3-c3ccccc3)cc2)CCC1 in the same way.
49

Consider next the molecule c1ccc2oc(-c3csc(C4CCN(Cc5nc6ncccc6[nH]5)CC4)n3)cc2c1 in the same way.
12

Consider next the molecule N#Cc1cnc(Nc2cc(NC[C@H]3CNCCO3)c(C(F)(F)F)cn2)cn1 in the same way.
9

Consider next the molecule Cc1cn(-c2cc(NC(=O)c3ccc4c(c3)CN(c3cncnc3)C[C@@H]4C)cc(C(F)(F)F)c2)cn1 in the same way.
19

Consider next the molecule CNC(=O)c1nn(C)c2c1C(C)(C)Cc1cnc(Nc3ccc(N4CCN(C)CC4)cc3)nc1-2 in the same way.
12

----------
Listed compounds paired with reported Population Healthy Nuclei (%)
system: U2OS; experiment: Multiplex assay against U2OS; format: toxicity, cell-based; conditions: human, 24 h, 10 µM, compound concentration 10 uM, replicate 1

{"Compound": "Cl.Cl.NC1(c2ccc(-c3nc4ccn5c(=O)[nH]nc5c4cc3-c3ccccc3)cc2)CCC1", "Result": "27%"}
{"Compound": "CN(C)C/C=C/C(=O)Nc1cc2c(Nc3ccc(F)c(Cl)c3)ncnc2cc1O[C@H]1CCOC1.O=C(O)/C=C\\C(=O)O.O=C(O)/C=C\\C(=O)O [AFATINIB DIMALEATE]", "Result": "65%"}
{"Compound": "C[C@@H]1CN(c2cc(-c3nn(C)c4ccc(OC5(C)CC5)cc34)ncn2)C[C@H](C)O1", "Result": "92%"}

API: the following record is the query input.
Given CCOc1cc(N2CCC(O)CC2)ccc1Nc1ncc2c(n1)N(C1CCCC1)CCC(=O)N2C , state its recorded Population Healthy Nuclei (%).
93%

----------
system: U2OS; assay: Multiplex assay against U2OS; type: toxicity, cell-based; details: human, 48 h, 10 µM, compound concentration 10 uM, replicate 2
Lab note: compare Population Normal (%) with 90%, writing TRUE if less and FALSE if equal or more.

Examples from the recorded data:
{"Compound": "Cc1nc(Cc2cccc(C(F)(F)F)c2)sc1-c1ccc(C(N)=O)nc1 [TP-024n]", "Target or test system": "U2OS", "Classification": "FALSE"}
{"Compound": "COc1ccc(NS(=O)(=O)c2sc3ccc(Cl)cc3c2C)cc1N1CCNCC1.Cl", "Target or test system": "U2OS", "Classification": "FALSE"}
{"Compound": "Nc1ccc(C(=O)Nc2cccc(-c3nc(N4CCOCC4)c4oc5ncccc5c4n3)c2)cn1", "Target or test system": "U2OS", "Classification": "TRUE"}
{"Compound": "CCCn1c(=O)c2[nH]c(C34CC5CC(CC3C5)C4)nc2n(CCC)c1=O [ROLOFYLLINE]", "Target or test system": "U2OS", "Classification": "FALSE"}
{"Compound": "Nc1nc2c(c(N3CCNCC3)n1)CCC1=C2[C@@H]2CCCC[C@@H]2O1", "Target or test system": "U2OS", "Classification": "TRUE"}

Consider CCC(=O)O[C@]1(C(=O)SCF)[C@H](C)C[C@H]2[C@@H]3C[C@H](F)C4=CC(=O)C=C[C@]4(C)[C@@]3(F)[C@@H](O)C[C@@]21C [FLUTICASONE PROPIONATE] . Does its Population Normal (%) lie strictly below 90%?
FALSE

Consider next the compound CCc1cc2c(cc1CC)CC(NC[C@H](O)c1ccc(O)c3[nH]c(=O)ccc13)C2 [INDACATEROL] in the same way.
TRUE

Consider next the compound COc1cc2c(NC3CCN(C(C)C)CC3)nc(N3CCC(F)(F)CC3)nc2cc1OCCCN1CCCC1 in the same way.
TRUE

Consider next the compound CC(=O)c1cc(-c2cc(C(=O)NC3CC3)ccc2C)c2ncccn12 in the same way.
FALSE

Consider next the compound Cl.Cl.Nc1ncnc2c1c(-c1cccc(OCc3ccccc3)c1)cn2[C@H]1C[C@@H](CN2CCC2)C1 in the same way.
TRUE

Consider next the compound CC(C)N1CCC(C)(C)c2cc(C#Cc3ccc(C(=O)O)cc3)ccc21 in the same way.
TRUE

Consider next the compound C1=N/C2=N/c3ccc(OCCN4CCCC4)c(c3)COC/C=C\COCc3cccc(c3)C(=C1)N2 in the same way.
TRUE
